Values were extracted from ChEMBL document CHEMBL1148320.

targetDesc: glycogen phosphorylase b, muscle (Oryctolagus cuniculus) (UniProt P00489)
Sequence (P00489 whole entry, looked up): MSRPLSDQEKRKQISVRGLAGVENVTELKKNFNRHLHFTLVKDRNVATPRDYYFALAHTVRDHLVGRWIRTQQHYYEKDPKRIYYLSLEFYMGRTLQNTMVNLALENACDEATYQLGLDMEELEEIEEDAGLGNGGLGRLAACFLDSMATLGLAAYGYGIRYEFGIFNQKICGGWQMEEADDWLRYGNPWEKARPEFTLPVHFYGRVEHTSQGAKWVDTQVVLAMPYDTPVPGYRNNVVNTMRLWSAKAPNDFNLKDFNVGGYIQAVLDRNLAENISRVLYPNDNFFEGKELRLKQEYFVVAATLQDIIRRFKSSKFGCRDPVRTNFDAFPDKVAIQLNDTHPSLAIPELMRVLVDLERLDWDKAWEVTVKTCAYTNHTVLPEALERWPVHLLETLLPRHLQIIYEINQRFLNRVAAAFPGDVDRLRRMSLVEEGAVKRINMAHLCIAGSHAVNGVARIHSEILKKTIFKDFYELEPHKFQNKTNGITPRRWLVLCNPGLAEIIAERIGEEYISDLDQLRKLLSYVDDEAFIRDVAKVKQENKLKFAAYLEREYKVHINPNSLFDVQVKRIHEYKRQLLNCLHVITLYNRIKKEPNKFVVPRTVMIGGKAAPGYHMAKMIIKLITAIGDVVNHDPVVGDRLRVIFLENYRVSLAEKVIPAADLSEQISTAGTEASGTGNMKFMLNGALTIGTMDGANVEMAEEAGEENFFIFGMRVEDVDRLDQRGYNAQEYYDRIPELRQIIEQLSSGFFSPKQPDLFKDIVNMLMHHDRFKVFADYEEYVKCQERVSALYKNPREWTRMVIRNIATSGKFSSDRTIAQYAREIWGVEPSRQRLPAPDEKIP
Criterion: Ki strictly under 4000 µM. Met: yes. Not met: no.

# count of solved cases: 2
{"columns": ["compound", "labelClass"],
 "data": [
  ["CNNC(=O)C1O[C@H](CO)[C@@H](O)[C@H](O)[C@H]1O (single isomer, unassigned)", "yes"],
  ["O=C(CSC1O[C@H](CO)[C@@H](O)[C@H](O)[C@H]1O)Nc1ccc(F)cc1F (single isomer, unassigned)", "no"]
]}

Problem: Dear colleague, could you confirm whether Ki of O=C(CSC1O[C@H](CO)[C@@H](O)[C@H](O)[C@H]1O)Nc1ccccc1 (single isomer, unassigned) falls below 4000 µM? Thanks.
Solution: yes

Problem: Dear colleague, could you confirm whether Ki of OC[C@H]1O[C@@](O)(CO)[C@H](O)[C@@H](O)[C@@H]1O falls below 4000 µM? Thanks.
Solution: no

Problem: Dear colleague, could you confirm whether Ki of CCCC(=O)NC1O[C@H](CO)[C@@H](O)[C@H](O)[C@H]1O (single isomer, unassigned) falls below 4000 µM? Thanks.
Solution: yes

Problem: Dear colleague, could you confirm whether Ki of NC(=O)CSC1O[C@H](CO)[C@@H](O)[C@H](O)[C@H]1O (single isomer, unassigned) falls below 4000 µM? Thanks.
Solution: no

Problem: Dear colleague, could you confirm whether Ki of CCC(=O)NC1O[C@H](CO)[C@@H](O)[C@H](O)[C@H]1O (single isomer, unassigned) falls below 4000 µM? Thanks.
Solution: yes

Problem: Dear colleague, could you confirm whether Ki of CC(=O)NCC(=O)NC1O[C@H](CO)[C@@H](O)[C@H](O)[C@H]1O (single isomer, unassigned) falls below 4000 µM? Thanks.
Solution: yes
